Target: Flt1 (h) (Homo sapiens, UniProt P17948)
Sequence (P17948 27-1338): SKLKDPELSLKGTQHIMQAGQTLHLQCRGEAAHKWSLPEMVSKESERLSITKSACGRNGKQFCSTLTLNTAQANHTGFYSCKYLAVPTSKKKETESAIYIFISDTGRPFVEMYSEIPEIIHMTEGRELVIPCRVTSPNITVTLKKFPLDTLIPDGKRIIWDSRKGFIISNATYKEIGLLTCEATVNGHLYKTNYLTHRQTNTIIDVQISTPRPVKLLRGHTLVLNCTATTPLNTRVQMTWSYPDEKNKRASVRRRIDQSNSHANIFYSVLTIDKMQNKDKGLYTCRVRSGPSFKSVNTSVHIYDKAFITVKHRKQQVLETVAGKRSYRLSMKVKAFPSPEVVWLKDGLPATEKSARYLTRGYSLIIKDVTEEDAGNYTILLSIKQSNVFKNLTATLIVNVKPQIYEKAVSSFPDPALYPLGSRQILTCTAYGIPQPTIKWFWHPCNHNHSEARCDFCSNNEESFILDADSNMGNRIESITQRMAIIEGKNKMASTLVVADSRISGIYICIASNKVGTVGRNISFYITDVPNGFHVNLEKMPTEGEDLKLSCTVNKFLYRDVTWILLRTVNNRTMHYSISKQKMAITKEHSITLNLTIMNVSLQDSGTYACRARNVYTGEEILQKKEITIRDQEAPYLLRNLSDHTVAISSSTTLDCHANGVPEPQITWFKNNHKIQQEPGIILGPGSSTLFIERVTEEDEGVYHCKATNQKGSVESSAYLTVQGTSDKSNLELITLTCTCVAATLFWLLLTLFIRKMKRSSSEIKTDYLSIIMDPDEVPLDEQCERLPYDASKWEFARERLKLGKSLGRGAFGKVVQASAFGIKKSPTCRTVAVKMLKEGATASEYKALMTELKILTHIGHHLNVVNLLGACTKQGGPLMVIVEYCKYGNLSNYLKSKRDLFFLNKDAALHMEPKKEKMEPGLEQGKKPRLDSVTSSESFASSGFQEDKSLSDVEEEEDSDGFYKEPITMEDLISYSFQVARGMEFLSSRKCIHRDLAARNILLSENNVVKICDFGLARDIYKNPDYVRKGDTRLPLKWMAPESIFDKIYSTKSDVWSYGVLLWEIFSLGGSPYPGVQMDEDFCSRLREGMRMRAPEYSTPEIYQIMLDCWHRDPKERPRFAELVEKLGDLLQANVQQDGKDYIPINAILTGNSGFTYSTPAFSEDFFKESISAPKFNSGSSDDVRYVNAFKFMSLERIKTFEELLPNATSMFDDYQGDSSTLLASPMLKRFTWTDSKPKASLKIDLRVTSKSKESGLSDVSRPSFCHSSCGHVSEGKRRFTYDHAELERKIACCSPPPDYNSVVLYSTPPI
Assay: Kinase Profiling Assay
Assay type: biochemical
Details: 100 μM
# key: entry, value: % activity
Report the value in % with no unit label.

[
  {
    "sequence.input": "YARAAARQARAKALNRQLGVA (Mammalian) [MMI-0200]",
    "assayed.target": "Flt1 (h) (Homo sapiens, UniProt P17948)",
    "% activity / %": 96
  }
]

Exam item: Field request: % activity | item: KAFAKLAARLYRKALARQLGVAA [MMI-0400]
Marked response: 48

Exam item: Another: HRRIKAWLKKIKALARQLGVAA (Mammalian) [MMI-0500]
Marked response: 27

Exam item: Another: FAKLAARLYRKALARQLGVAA [MMI-0300]
Marked response: 69

###

# key: entry, value: % activity
Biological target: MSK2 (h) (Homo sapiens)
Construct: purchased Millipore
Sequence (O75676 whole entry): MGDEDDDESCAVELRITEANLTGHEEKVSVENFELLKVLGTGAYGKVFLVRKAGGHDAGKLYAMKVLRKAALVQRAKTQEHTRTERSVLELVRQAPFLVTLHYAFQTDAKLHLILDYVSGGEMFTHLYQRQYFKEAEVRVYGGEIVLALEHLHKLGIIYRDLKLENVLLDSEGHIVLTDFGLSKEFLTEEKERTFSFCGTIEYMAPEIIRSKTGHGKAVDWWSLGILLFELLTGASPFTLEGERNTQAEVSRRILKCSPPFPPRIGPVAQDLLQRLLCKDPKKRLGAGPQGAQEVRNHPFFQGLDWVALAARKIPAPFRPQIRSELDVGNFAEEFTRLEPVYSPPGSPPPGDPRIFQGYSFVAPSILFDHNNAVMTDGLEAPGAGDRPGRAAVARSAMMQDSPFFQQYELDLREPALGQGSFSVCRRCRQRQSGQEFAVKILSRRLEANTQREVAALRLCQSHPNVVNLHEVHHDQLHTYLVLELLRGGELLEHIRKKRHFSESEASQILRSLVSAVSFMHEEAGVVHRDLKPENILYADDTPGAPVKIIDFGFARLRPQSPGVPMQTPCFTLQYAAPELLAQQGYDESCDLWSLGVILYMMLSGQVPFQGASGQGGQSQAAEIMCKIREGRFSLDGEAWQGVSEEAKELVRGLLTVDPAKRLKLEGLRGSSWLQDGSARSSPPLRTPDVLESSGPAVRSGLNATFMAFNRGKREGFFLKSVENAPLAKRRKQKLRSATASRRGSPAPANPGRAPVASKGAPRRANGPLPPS
Assay: Kinase Profiling Assay
Format: biochemical
Settings: 100 μM
Report the value in % with no unit label.

Consider the reported % activity for these sequences:
[
  {
    "sequence.input": "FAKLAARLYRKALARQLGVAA [MMI-0300]",
    "measured.value": 56
  },
  {
    "sequence.input": "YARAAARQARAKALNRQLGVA (Mammalian) [MMI-0200]",
    "measured.value": 88
  },
  {
    "sequence.input": "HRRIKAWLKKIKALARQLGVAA (Mammalian) [MMI-0500]",
    "measured.value": 14
  }
]

--- query ---
Exam item: Field request: % activity | item: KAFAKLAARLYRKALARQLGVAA [MMI-0400]
Marked response: 52

###

Target: Itk (h) (Homo sapiens, UniProt Q08881)
Construct: purchased Millipore
Sequence (Q08881 1-620): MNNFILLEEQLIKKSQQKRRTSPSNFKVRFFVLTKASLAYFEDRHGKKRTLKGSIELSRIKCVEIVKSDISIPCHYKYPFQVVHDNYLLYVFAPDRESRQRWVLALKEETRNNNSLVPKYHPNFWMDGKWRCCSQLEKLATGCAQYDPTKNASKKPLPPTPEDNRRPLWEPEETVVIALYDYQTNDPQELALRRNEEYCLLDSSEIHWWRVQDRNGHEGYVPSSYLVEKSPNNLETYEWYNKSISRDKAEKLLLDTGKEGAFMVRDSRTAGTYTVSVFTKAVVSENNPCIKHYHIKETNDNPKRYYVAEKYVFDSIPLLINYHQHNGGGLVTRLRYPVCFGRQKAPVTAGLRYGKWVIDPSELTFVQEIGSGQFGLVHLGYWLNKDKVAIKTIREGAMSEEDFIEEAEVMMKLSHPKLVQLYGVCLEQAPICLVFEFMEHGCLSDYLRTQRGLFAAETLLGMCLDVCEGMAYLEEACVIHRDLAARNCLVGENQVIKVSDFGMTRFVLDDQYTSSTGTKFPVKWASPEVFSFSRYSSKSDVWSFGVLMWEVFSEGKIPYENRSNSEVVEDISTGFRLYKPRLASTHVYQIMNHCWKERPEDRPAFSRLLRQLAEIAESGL
Assay: Kinase Profiling Assay
Format: biochemical
Conditions: 100 μM
# key: entry, value: % activity
Report the value in % with no unit label.

Consider the reported % activity for these sequences:
[
  {
    "sequence.input": "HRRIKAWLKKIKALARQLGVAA (Mammalian) [MMI-0500]",
    "% activity (%)": 7
  },
  {
    "sequence.input": "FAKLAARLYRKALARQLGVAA [MMI-0300]",
    "% activity (%)": 77
  },
  {
    "sequence.input": "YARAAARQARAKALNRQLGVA (Mammalian) [MMI-0200]",
    "% activity (%)": 98
  }
]

--- query ---
Exam item: Field request: % activity | item: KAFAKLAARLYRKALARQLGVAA [MMI-0400]
Marked response: 63

src = patent US10500249B2
